system: Vero cells; assay: in vitro; format: cell-based; conditions: African green monkey, 3 days
Attribute Measured: CC50

COc1cc(NC(C(=O)c2c[nH]c3cc(OC)c(OC(F)(F)F)cc23)c2ccc(F)cc2OCCO)cc(S(C)(=O)=O)c1 (single isomer, unassigned) [Compound 11B]: > 2.5 µM

----------
test system: DENV-4 strain EDEN (SG/06K2270DK1/2005); assay: Tetravalent RT-qPCR assay Protocol A, serotype 4 EDEN; assay type: cell-based; conditions: Dengue virus, DENV4, 72 h; RT-qPCR serotype 4 EDEN, Vero cells, day 3
pEC50: −log10 of the molar value.
Attribute Measured: pEC50

COc1cc(NC(C(=O)c2c[nH]c3cc(OC)c(C)cc23)c2ccc(F)cc2OCCO)cc(S(C)(=O)=O)c1 (single isomer, unassigned): 8.47
COc1cc(NC(C(=O)c2c[nH]c3cc(F)ccc23)c2ccc(F)cc2OCCO)cc(S(C)(=O)=O)c1 (single isomer, unassigned): 8.44
COc1cc(NC(C(=O)c2c[nH]c3cc(F)c(F)cc23)c2ccc(F)cc2OCCO)cc(S(C)(=O)=O)c1 (single isomer, unassigned): 8.43
COc1cc(NC(C(=O)c2c[nH]c3c(C)c(Cl)ccc23)c2ccc(F)cc2OCCO)cc(S(C)(=O)=O)c1 (single isomer, unassigned): 8.49
COc1cc(NC(C(=O)c2c[nH]c3c(C)c(F)ccc23)c2ccc(F)cc2OCCO)cc(S(C)(=O)=O)c1 (single isomer, unassigned): 8.29
COc1cc(NC(C(=O)c2c[nH]c3cc(Cl)ccc23)c2ccc(F)cc2OCCO)cc(S(C)(=O)=O)c1 (single isomer, unassigned): 8.64

----------
system: DENV-2 strain 16681; experiment: Tetravalent RT-qPCR assay Protocol A, serotype 2; assay type: cell-based; settings: Dengue virus, DENV2, 72 h; RT-qPCR serotype 2 16681, Vero cells, day 3
pEC50: −log10 of the molar value.
Catalogue of compounds with associated pEC50
Attribute Measured: pEC50

COc1cc(NC(C(=O)c2c[nH]c3c(C)cc(Cl)cc23)c2ccc(F)cc2OCCO)cc(S(C)(=O)=O)c1 (single isomer, unassigned) [Compound 9A]: 9.21
COc1cc(NC(C(=O)c2c[nH]c3cc(Cl)ccc23)c2ccc(F)cc2OCCO)cc(S(C)(=O)=O)c1 (single isomer, unassigned) [Compound 2A]: 9.40
COc1cc(NC(C(=O)c2c[nH]c3cc(F)c(C)cc23)c2ccc(F)cc2OCCO)cc(S(C)(=O)=O)c1 (single isomer, unassigned) [Compound 7A]: 9.11

----------
assay: in vitro; conditions: African green monkey
Response field label: string, one of YES (CC50 strictly below 7 µM) or NO.

COc1cc(NC(C(=O)c2c[nH]c3cc(F)ccc23)c2ccc(F)cc2OCCO)cc(S(C)(=O)=O)c1 (racemic) [Compound 1]: NO
COc1cc(NC(C(=O)c2c[nH]c3cc(OC)c(OC(F)(F)F)cc23)c2ccc(F)cc2OCCO)cc(S(C)(=O)=O)c1 (racemic) [Compound 11]: NO
COc1cc(NC(C(=O)c2c[nH]c3cc(Cl)ccc23)c2ccc(F)cc2OCCO)cc(S(C)(=O)=O)c1 (racemic) [Compound 2]: YES
COc1cc(NC(C(=O)c2c[nH]c3c(C)cc(OC(F)(F)F)cc23)c2ccc(F)cc2OCCO)cc(S(C)(=O)=O)c1 (racemic) [Compound 12]: YES
COc1cc(NC(C(=O)c2c[nH]c3cc(F)ccc23)c2ccc(F)cc2OCCO)cc(S(C)(=O)=O)c1 (single isomer, unassigned) [Compound 1A]: NO
COc1cc(NC(C(=O)c2c[nH]c3c(C)c(Cl)ccc23)c2ccc(F)cc2OCCO)cc(S(C)(=O)=O)c1 (racemic) [Compound 4]: YES
COc1cc(NC(C(=O)c2c[nH]c3cc(OC)c(C)cc23)c2ccc(F)cc2OCCO)cc(S(C)(=O)=O)c1 (racemic) [Compound 6]: YES
COc1cc(NC(C(=O)c2c[nH]c3c(C)c(F)ccc23)c2ccc(F)cc2OCCO)cc(S(C)(=O)=O)c1 (racemic) [Compound 3]: YES

----------
system: DENV-2 strain 16681; assay: Tetravalent RT-qPCR assay Protocol A, serotype 2; format: cell-based; details: Dengue virus, DENV2, 72 h; RT-qPCR serotype 2 16681, Vero cells, day 3
Catalogue of molecules with associated EC50
Attribute Measured: EC50 (nM)

COc1cc(NC(C(=O)c2c[nH]c3ccc(OC(F)(F)F)cc23)c2ccc(F)cc2OCCO)cc(S(C)(=O)=O)c1 (single isomer, unassigned) [Compound 10B]: 0.057
COc1cc(NC(C(=O)c2c[nH]c3c(C)c(Cl)ccc23)c2ccc(F)cc2OCCO)cc(S(C)(=O)=O)c1 (single isomer, unassigned) [Compound 4B]: 0.21
COc1cc(NC(C(=O)c2c[nH]c3cc(OC)c(C)cc23)c2ccc(F)cc2OCCO)cc(S(C)(=O)=O)c1 (single isomer, unassigned) [Compound 6A]: 0.84
COc1cc(NC(C(=O)c2c[nH]c3cc(OC)c(OC(F)(F)F)cc23)c2ccc(F)cc2OCCO)cc(S(C)(=O)=O)c1 (single isomer, unassigned) [Compound 11B]: 0.14
COc1cc(NC(C(=O)c2c[nH]c3cc(F)ccc23)c2ccc(F)cc2OCCO)cc(S(C)(=O)=O)c1 (single isomer, unassigned) [Compound 1A]: 1.1
COc1cc(NC(C(=O)c2c[nH]c3c(C)c(F)ccc23)c2ccc(F)cc2OCCO)cc(S(C)(=O)=O)c1 (single isomer, unassigned) [Compound 3A]: 0.43
COc1cc(NC(C(=O)c2c[nH]c3cc(F)c(F)cc23)c2ccc(F)cc2OCCO)cc(S(C)(=O)=O)c1 (single isomer, unassigned) [Compound 5A]: 0.71
COc1cc(NC(C(=O)c2c[nH]c3c(C)cc(OC(F)(F)F)cc23)c2ccc(F)cc2OCCO)cc(S(C)(=O)=O)c1 (single isomer, unassigned) [Compound 12A]: 0.075
COc1cc(NC(C(=O)c2c[nH]c3c(F)cc(C)cc23)c2ccc(F)cc2OCCO)cc(S(C)(=O)=O)c1 (single isomer, unassigned) [Compound 8A]: 1.4

----------
Catalogue of compounds with associated CC50 at 3 days
test: in vitro; type: cell-based; settings: African green monkey, CC50
Attribute Measured: CC50 at 3 days

COc1cc(NC(C(=O)c2c[nH]c3c(C)cc(OC(F)(F)F)cc23)c2ccc(F)cc2OCCO)cc(S(C)(=O)=O)c1 (single isomer, unassigned) [Compound 12A]: > 1000 nM
COc1cc(NC(C(=O)c2c[nH]c3cc(Cl)ccc23)c2ccc(F)cc2OCCO)cc(S(C)(=O)=O)c1 (single isomer, unassigned): 4800 nM
COc1cc(NC(C(=O)c2c[nH]c3c(C)cc(Cl)cc23)c2ccc(F)cc2OCCO)cc(S(C)(=O)=O)c1 (single isomer, unassigned): > 2500 nM
COc1cc(NC(C(=O)c2c[nH]c3cc(OC)c(OC(F)(F)F)cc23)c2ccc(F)cc2OCCO)cc(S(C)(=O)=O)c1 (single isomer, unassigned) [Compound 11B]: > 2500 nM
COc1cc(NC(C(=O)c2c[nH]c3cc(F)c(C)cc23)c2ccc(F)cc2OCCO)cc(S(C)(=O)=O)c1 (single isomer, unassigned): > 2400 nM

----------
Catalogue of compounds with associated CC50
tested on: Vero cells; settings: African green monkey
Attribute Measured: CC50 (µM)

COc1cc(NC(C(=O)c2c[nH]c3c(C)cc(OC(F)(F)F)cc23)c2ccc(F)cc2OCCO)cc(S(C)(=O)=O)c1 (single isomer, unassigned) [Compound 12A]: 2.2
COc1cc(NC(C(=O)c2c[nH]c3c(C)cc(Cl)cc23)c2ccc(F)cc2OCCO)cc(S(C)(=O)=O)c1 (single isomer, unassigned) [Compound 9B]: 13
COc1cc(NC(C(=O)c2c[nH]c3cc(F)ccc23)c2ccc(F)cc2OCCO)cc(S(C)(=O)=O)c1 (single isomer, unassigned): 13
COc1cc(NC(C(=O)c2c[nH]c3c(C)c(F)ccc23)c2ccc(F)cc2OCCO)cc(S(C)(=O)=O)c1 (single isomer, unassigned) [Compound 3B]: 11
COc1cc(NC(C(=O)c2c[nH]c3c(C)cc(OC(F)(F)F)cc23)c2ccc(F)cc2OCCO)cc(S(C)(=O)=O)c1 (single isomer, unassigned) [Compound 12B]: 9.9
COc1cc(NC(C(=O)c2c[nH]c3cc(Cl)ccc23)c2ccc(F)cc2OCCO)cc(S(C)(=O)=O)c1 (single isomer, unassigned) [Compound 2B]: 12
COc1cc(NC(C(=O)c2c[nH]c3cc(OC)c(C)cc23)c2ccc(F)cc2OCCO)cc(S(C)(=O)=O)c1 (single isomer, unassigned) [Compound 6B]: 13
COc1cc(NC(C(=O)c2c[nH]c3c(F)cc(C)cc23)c2ccc(F)cc2OCCO)cc(S(C)(=O)=O)c1 (single isomer, unassigned) [Compound 8B]: 8.2
COc1cc(NC(C(=O)c2c[nH]c3c(C)c(Cl)ccc23)c2ccc(F)cc2OCCO)cc(S(C)(=O)=O)c1 (single isomer, unassigned) [Compound 4B]: 3.8
COc1cc(NC(C(=O)c2c[nH]c3cc(F)c(C)cc23)c2ccc(F)cc2OCCO)cc(S(C)(=O)=O)c1 (single isomer, unassigned) [Compound 7B]: 8
COc1cc(NC(C(=O)c2c[nH]c3cc(F)c(F)cc23)c2ccc(F)cc2OCCO)cc(S(C)(=O)=O)c1 (single isomer, unassigned) [Compound 5B]: 11
COc1cc(NC(C(=O)c2c[nH]c3cc(OC)c(OC(F)(F)F)cc23)c2ccc(F)cc2OCCO)cc(S(C)(=O)=O)c1 (single isomer, unassigned) [Compound 11B]: 2.4
